Molecular target: UniProt:P23743
Sequence (P23743 whole entry): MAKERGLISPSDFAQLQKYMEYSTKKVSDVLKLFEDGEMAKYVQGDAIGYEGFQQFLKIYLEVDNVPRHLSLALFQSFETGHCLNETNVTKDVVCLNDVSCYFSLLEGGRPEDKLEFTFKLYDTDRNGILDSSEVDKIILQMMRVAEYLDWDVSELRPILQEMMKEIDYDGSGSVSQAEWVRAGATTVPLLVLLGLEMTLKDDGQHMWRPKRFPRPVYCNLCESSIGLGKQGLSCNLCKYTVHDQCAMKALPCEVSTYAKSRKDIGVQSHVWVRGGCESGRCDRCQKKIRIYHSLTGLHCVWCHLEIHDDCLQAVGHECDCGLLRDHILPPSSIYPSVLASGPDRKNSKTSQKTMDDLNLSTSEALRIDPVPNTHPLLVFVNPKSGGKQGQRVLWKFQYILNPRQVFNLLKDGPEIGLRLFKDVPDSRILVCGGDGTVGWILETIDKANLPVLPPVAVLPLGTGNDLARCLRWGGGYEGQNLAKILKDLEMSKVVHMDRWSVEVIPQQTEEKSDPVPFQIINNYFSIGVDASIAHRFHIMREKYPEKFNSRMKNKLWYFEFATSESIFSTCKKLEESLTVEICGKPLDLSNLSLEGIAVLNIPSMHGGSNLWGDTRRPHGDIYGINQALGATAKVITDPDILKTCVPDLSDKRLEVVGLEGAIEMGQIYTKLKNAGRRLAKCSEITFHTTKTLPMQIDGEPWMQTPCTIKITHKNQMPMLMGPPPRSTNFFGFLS
reported endpoint: IC50 (µM)
Answers are plain numbers, in µM.

Per the records, this molecule ( CCC(c1cccc(S(F)(F)(F)(F)F)c1)N1C[C@H](CC)N(c2nc(=O)n(C)c3ccc(C#N)nc23)C[C@H]1CC (single isomer, unassigned) [US20250223301, Compound 55] ) has IC50 equal to 0.076
